# Study system: EGFR Δ746-750 mutant (Homo sapiens (Human), UniProt P00533, DEL746-750)
# Sequence (P00533 other isoform, or with tags, fused parts or gaps del 1-668/del 746-750 limits assumed): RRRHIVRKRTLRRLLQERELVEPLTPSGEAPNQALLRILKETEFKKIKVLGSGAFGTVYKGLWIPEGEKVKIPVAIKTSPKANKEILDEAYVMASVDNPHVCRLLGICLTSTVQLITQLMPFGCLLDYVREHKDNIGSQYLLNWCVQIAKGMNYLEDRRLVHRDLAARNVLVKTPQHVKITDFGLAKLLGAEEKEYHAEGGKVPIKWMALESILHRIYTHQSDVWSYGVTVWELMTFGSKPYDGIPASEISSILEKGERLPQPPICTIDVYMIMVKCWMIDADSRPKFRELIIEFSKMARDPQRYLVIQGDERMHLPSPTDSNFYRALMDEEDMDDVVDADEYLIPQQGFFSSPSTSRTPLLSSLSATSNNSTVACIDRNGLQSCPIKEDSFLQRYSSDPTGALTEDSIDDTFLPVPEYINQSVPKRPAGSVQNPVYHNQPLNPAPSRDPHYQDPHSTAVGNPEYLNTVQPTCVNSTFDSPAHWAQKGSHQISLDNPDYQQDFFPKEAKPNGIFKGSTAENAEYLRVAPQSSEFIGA
# Procedure text: HotSpot radiometric kinase assay, EGFR Δ746-750 mutant
# Details: 10 μM ATP
# Protocol: Biochemical Assays for Inhibition of Wild-Type and Mutant EGFRs Briefly, specific kinase/substrate pairs along with required cofactors were prepared in reaction buffer; 20 mM Hepes pH 7.5, 10 mM […], 1 mM EGTA, 0.02% Brij35, 0.02 mg/ml BSA, 0.1 mM Na3VO4, 2 mM DTT, 1% DMSO. Compounds were delivered into the reaction, followed […] later by addition of a mixture of ATP (Sigma, St. Louis MO) and ^33P ATP (Perkin Elmer, Waltham MA) to a final concentration of 10 μM. […]
Experimental readout: IC50 (nM)

Some solved entries appear below for comparison.
CCOc1nn(C)c2c1/C=C/c1n[nH]c3ccc(cc13)-c1cnn(C)c1O[C@@H]1CCCN(C2)C1 ... 13.6
CCOc1nn(CCO)c2c1/C=C/c1n[nH]c3ccc(cc13)-c1c(C)nn(C)c1OC[C@H](C)N(C1CC1)C2 ... 5.17
Cc1nn(C)c2c1/C=C/c1n[nH]c3ccc(cc13)-c1cnn(C)c1O[C@@H]1CCCN(C2)C1 ... 7.45
CCOc1nn(C)c2c1/C=C/c1n[nH]c3ccc(cc13)-c1cnn(C)c1O[C@@H](C)CN(C(C)C)C2 ... 1.77

[A] Cc1nn(C)c2c1CN(C)C[C@H](C)Oc1c(cnn1C)-c1ccc3[nH]nc(c3c1)/C=C/2
[B] CN(C)Cc1ccc2c(c1)O[C@@H]1CCN(CCOc3c(cnn3C)-c3ccc4[nH]nc(c4c3)/C=C/2)C1=O
Input line: Between item A and item B , which reported IC50 is smaller? API: response body contains the label of the selected item.
Output line: B
